Where do the numbers come from? From paper PMC4273980.

pKi data for hP2Y14R (Homo sapiens) follow.
pKi: −log10 of the molar value.
MEASUREMENT_TYPE: pKi

Look over these answered cases.
INSERT INTO measurements (molecule, tested_target, recorded_measurement) VALUES
  ('C#CCCCCN1CCC(c2ccc(-c3cc(C(=O)O)cc4cc(-c5ccc(C(F)(F)F)cc5)ccc34)cc2)CC1 [compound 22]', 'hP2Y14R (Homo sapiens)', 7.89),
  ('C#CCCN1CCC(c2ccc(-c3cc(C(=O)O)cc4cc(-c5ccc(C(F)(F)F)cc5)ccc34)cc2)CC1 [compound 20]', 'hP2Y14R (Homo sapiens)', 8.57),
  ('C#CCCC(=O)N1CCC(c2ccc(-c3cc(C(=O)O)cc4cc(-c5ccc(C(F)(F)F)cc5)ccc34)cc2)CC1 [compound 24]', 'hP2Y14R (Homo sapiens)', 8.17);

(P) C=C1CCC[N+]12CCC(c1ccc(-c3cc(C(=O)[O-])cc4cc(-c5ccc(C(F)(F)F)cc5)ccc34)cc1)CC2 (stereo not drawn) [compound 23]
(Q) C#CCCCCC(=O)N1CCC(c2ccc(-c3cc(C(=O)O)cc4cc(-c5ccc(C(F)(F)F)cc5)ccc34)cc2)CC1 [compound 25]
(R) CCOC(=O)c1cc(-c2ccc(C3CCNCC3)cc2)c2ccc(-c3ccc(C(F)(F)F)cc3)cc2c1 [compound 19]
(S) CC(C)(C)OC(=O)NCCCN1CCC(c2ccc(-c3cc(C(=O)O)cc4cc(-c5ccc(C(F)(F)F)cc5)ccc34)cc2)CC1 [compound 26]
(T) NCCCN1CCC(c2ccc(-c3cc(C(=O)O)cc4cc(-c5ccc(C(F)(F)F)cc5)ccc34)cc2)CC1 [compound 27]
Sort the molecules on pKi; start with the lowest figure. In plain terms: list the labels in the order you were asked to.
R, S, T, Q, P
(R: 6.92, S: 7.59, T: 7.85, Q: 8.08, P: 8.70)
